assay-system: UniProtKB P41595
Sequence (P41595 whole entry, looked up, species assumed): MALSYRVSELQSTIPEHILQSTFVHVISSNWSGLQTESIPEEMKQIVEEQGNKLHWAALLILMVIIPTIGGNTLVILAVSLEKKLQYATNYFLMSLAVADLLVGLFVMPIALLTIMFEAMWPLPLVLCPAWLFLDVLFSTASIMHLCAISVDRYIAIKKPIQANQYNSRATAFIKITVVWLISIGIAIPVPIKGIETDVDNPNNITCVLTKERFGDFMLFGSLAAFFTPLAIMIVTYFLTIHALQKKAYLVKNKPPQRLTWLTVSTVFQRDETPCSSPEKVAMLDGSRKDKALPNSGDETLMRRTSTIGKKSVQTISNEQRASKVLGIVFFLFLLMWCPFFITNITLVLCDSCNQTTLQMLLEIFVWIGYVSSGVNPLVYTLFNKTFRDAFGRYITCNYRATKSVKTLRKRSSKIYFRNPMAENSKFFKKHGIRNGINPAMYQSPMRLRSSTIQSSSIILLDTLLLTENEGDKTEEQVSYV
assay-remarks: FLIPR Ca2+ flux agonist assay, 5-HT2B
Structures can show the parent of a compound that is named as a salt.
Measured pEC50 of individual entries
Just the number, please; pEC50 means minus log10 of the concentration in mol/L.

- CCCN(CC)CCc1c[nH]c2ccc(F)cc12 [Compound 3, hydrochloride]: 7.81

Then there is this compound:
Need pEC50, item CCCN(CC)CCc1c[nH]c2ccccc12 [Compound 1, ethylpropyltryptamine] 7.39

* * *

assay-remarks: Pharmacokinetics in mice, brain
Assay type: in vivo, C57BL/6 mice
experimental-setup: male, C57BL/6; mouse brain, oral, 1 mg/kg; read-out: Cmax
property-measured: Cmax (ng/g)
Field: numeric (ng/g). Do not append units.

Returns the measured Cmax for the input compound. Input: CN(C)CCc1c[nH]c2cccc(O)c12 [Psilocin, psilocin, reference compound] 211
